# Tested on: NIH3T3 cells
# Format: cell-based, mouse
# condition-summary: MTS
recorded-endpoint: effect on NIH3T3 viability

CC[C@@]1(O)C[C@H](O[C@H]2C[C@H](N(C)C)[C@H](O)[C@H](C)O2)c2c(cc3c(c2O)C(=O)c2c(O)cccc2C3=O)[C@H]1C(=O)OC	excess NIH3T3 cytoxicity
O=C1C=C2C(=CCOC2O)O1 (stereo not shown)	excess NIH3T3 cytoxicity

Just for reference, patent US8822440B2 is where these values come from.
